# TEST SYSTEM: T1, monkey Trop2 on CHO-K1 cells (monkey, UniProt A0A2K5UE71 27-323)
# T1 construct: also called CHO-K1/monkey Trop2
# T1 sequence: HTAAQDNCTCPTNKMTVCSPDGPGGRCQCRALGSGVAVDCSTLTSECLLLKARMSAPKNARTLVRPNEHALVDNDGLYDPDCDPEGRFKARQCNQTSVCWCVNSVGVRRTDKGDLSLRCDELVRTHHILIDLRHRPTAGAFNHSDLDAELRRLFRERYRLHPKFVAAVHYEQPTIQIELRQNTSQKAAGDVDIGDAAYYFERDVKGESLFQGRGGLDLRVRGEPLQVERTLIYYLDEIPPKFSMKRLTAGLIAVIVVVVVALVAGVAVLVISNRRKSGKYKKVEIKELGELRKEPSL
# ASSAY NAME: flow cytometry on CHO-K1/monkey Trop2 cells
METRIC NAME: EC50 (nM)
Quick reminder: number only, in nM, skip the unit.

Examples from the recorded data:
| BINDER | EC50 (nM) |
| --- | --- |
| PR001130 (antibody, human IgG1, kappa, V domains shown, fully human IgG1/kappa; also called antibody No. (2)) VH: QVQLQESGPGLVKPSGTLSLTCAVSGDSISSHNWWSWVRQPPGKGLEWIGEIYHSGITSYNPSLKSRVTISVDKSKNQFSLKLNSVTAADTAMYYCARGSGVISYFDYWGQGTLVTVSS VL: DIQMTQSPSTLSASVGDRVTITCRASQSIGNWLAWYQQKPGKAPKLLIYKASSLESGVPSRFSGSGSGTEFTLTISSLQPDDFATYYCQQYDSYSPITFGQGTRLEIKR | 6.26 |
| PR001142 (antibody, human IgG1, kappa, V domains shown, fully human IgG1/kappa; also called antibody No. (9)) VH: QVQLQESGPGLVKPSGTLSLTCAVSGDSISSNNWWSWVRQPPGKGLEWIGEIYPGGNPNYNPSLKSRVTISVDKSKNQFSLKLNSVTAADTAVYYCARGSGVISYFDYWGQGTLVTVSS VL: DIQMTQSPSTLSASVGDRVTITCRASQSIGHWLAWYQQKPGKAPKLLIYKASSLESGVPSRFRGSGSGTEFTLTISSLQPDDFATYYCQQYSSYSPITFGQGSRLEIKR | 2.1 |

Now consider a different binder.
**Query** Value lookup for EC50; key = comparative example 2 antibody Tab (hRS7) (antibody, human IgG1, kappa, V domains shown, prepared on the basis of sacituzumab govitecan (ChemPartner, #T07-001); naked antibody) VH: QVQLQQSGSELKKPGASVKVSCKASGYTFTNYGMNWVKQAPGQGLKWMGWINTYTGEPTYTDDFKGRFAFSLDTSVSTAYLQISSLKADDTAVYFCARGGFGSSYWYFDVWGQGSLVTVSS VL: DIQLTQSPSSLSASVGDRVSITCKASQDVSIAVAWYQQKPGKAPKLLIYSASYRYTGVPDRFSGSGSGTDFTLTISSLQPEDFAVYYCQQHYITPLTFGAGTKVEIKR
**Result** 2.13
